All figures here come from the domain aggregation screens of Martell et al. (2025).

# assaySummary: soluble fraction after stress (log2 fold change); higher = more stays soluble; pooled small domains, quantitative proteomics
# conditionDetails: stress: pH 4
# binarize soluble fraction (log2): threshold 0.03 inclusive, high side label 1, low side label 0

Field: example entries. Status: answers known.
HMTKASYKITTPSGVNVREGAGKRYAVRKAYPKGKTVTVTQTKEVNGNLWGKTSDGWFAIKYQGAVYASA; label 1
HMSETAVTYNEDFEADGSLRPNEQAVLDAFTGVLKLTVSELEKKTGLRNVVPVVASLMAKGAVEVSEELK; label 0
HMRLSESLLDDIPGIGAARKRALLQSFGSVRKLRHADAEEIAAKVPGIGLNFAEKIVEALRKK; label 1
HMAQLPADLSKVKSSQISDQQLTQIAQQAKNSGQSEQAVLQELKQRGLPDTEIQALGARISGLMQ; label 1
HMTANTLDLTYSQFLENVKNGSVNDVTIRGNNVSGNFSDGRKFKTYAVNDPTLVEKLTKMGVNISAAPL; label 1

Query string: Say whether HMGSNRPLALGDVVRIEGSKTLGTILELNAKDAVVALGALKTTLPLSRIHHASSQESQRLKRQATQAPLR shows soluble fraction (log2) of 0.03 or more.
Result string: label 1

Query string: Form field: soluble fraction (log2) at least 0.03? Entry: HMAESNQIQLSDVREALNMIGPASWLDLVHYLDTGKGRGGQRLRRMLKSLSRSGEIELVARGTYQITDN
Result string: label 0

Query string: Is soluble fraction (log2) for HMSHKYKLTVPETGEGTRVDKFLSSALTELSRTRLKSLIEEGQVTLGGVKLTNPSHRVKSGDELNIEIPVP at or above 0.03?
Result string: label 1

Query string: State whether the measured soluble fraction (log2) reaches 0.03, counting equality as reaching it, for HMQSFIEELLPVVDNFERSLAVVDPSDEIKNFLKGYEMIYNQLMEVLKSQGVEVIKTEGEEFDPNFHQA
Result string: label 0

Query string: Decide: is the reported value of soluble fraction (log2) for HMNMLGEQVRNIRKSRGFTLKALAEQTGLSIGYISQIERNLTDPSLSTLRKISAALDVPTYLFMG equal to or greater than 0.03?
Result string: label 1

Query string: Record HMNSKMTYSELITSMENKEVESVKISSSGDVASVKLKNSKTEKEVKIPSLDSFMTYTEQYLKTGEITLEE ; criterion: soluble fraction (log2) no lower than 0.03. Met?
Result string: label 0

Query string: Threshold query (soluble fraction (log2) >= 0.03) on HMENKLIELTLSLDKSERLDKILTQELSHTRSVIQQWLKSGFVSVNGEIVKANYKAKDGDHVTIQIE
Result string: label 0

Query string: Could you verify whether the entry HMNFFQEIGNSILIELNKKNWTQSMFAHKIGVSDEVFKQIVQGKKALNAVEIAKIANTLDVDPEKLLRK shows soluble fraction (log2) of no less than 0.03?
Result string: label 0

Query string: Kindly determine if soluble fraction (log2) recorded for HMKHTQTDEGELLSTLRTLFPNSSSSSLRKMLTQGRILVNQEVVHRAKHALQAGDEIEVLARQ is above or exactly 0.03.
Result string: label 1

Query string: Form field: soluble fraction (log2) at least 0.03? Entry: HMKLEKKWIEAVEKYRRYVLSTGIKHVQKPIEFENFRLGQWYADVRQSYRRGTLSKEKLLEIREINPDFPN
Result string: label 1

Query string: Item HMQEPIAVPDFINKSAVDVLVNPVFTQNFKLVSEDVYDDKVPEGYIVGQSVKSDTLVQPGTEIVIYV with soluble fraction (log2) of 0.03 or above?
Result string: label 1

Query string: Test whether the sequence HMAAEELTVDKILTAQSFGVTAEAILAKVNDPANTVATLTQADVDRLRAAGVPEGVVTALQARAPQ records soluble fraction (log2) of 0.03 or higher.
Result string: label 0

Query string: Check if soluble fraction (log2) >= 0.03 (inclusive). Item: HMRMLLKELLIQYEVKNDKSHVEVAKEVGVSLSTYYRWLNGESLHLKKRTIDRLSEVLHYDINQVVEES
Result string: label 0

Query string: Confirm if soluble fraction (log2) reported for the sequence HMGERVDGVVKFFNGQKGFGFIQREDGGPDAFVHISAVERAGMAGLDEGQRVSFELELDRRGKQAAINLTP is 0.03 or above.
Result string: label 0

Query string: Quick check, soluble fraction (log2) >= 0.03? HMSAEDYMEMIYRLSQENGFTRVNDLASALNVQPPSVTRMIQKLAELNLIKYEKYGVIMLQPYGIEVGRSL
Result string: label 0

Query string: Does HMQQVLGDVNEDDKVDFLDAIVVLRHDAEIIQLTDNQMKAAEVNKDGKVDFLDAIMILRYDAEIIGS have a reported soluble fraction (log2) of at least 0.03?
Result string: label 0

Query string: # bool: soluble fraction (log2) of HMIVPPAIPFRALGIFGPRDRPIVTFEDGPRLINAREGDVLDGRFILRRVGRESVDFAFVGLPPEITRRIP >= 0.03
Result string: label 0

Query string: Kindly determine if soluble fraction (log2) recorded for HMSDFEASDPALLREGMRVQHLNFGKGTVITIEGAGANKKASVAFDGVGTKQLMLRFARLKIIYE is above or exactly 0.03.
Result string: label 0

====

# assaySummary: soluble fraction after stress (log2 fold change); higher = more stays soluble; pooled small domains, quantitative proteomics
# conditionDetails: stress: pH 4
soluble fraction (log2) by entry:

Below, each entry is followed by its recorded soluble fraction (log2) result.
HMDVQGFVMDLDKPLDKEPIVEGFELKLEDSLTLVAAVNKDKSINSLFDELSKLGIKVKSMRNPP; -2.11
HMSESEDFQNRWRPWRSLLDDETPVVREALVDQLKLFPEEGRLFLQQMSEEDDPISARHAFELIKSLGW; -1.11
HMATPKYMELVRWINEQIESKNLVPGQKMYSENTLKEMFGVSRQTVRHAIGVLENEGVIRRIQGSGTYIN; 0.163
HMEDPVAQEARAAFEVGRLLAAATGPVTLAAIRRAIDLPEERLEEILRRLEESGAVRRARDGWLPG; -0.269
HMARRSRADAVRNREALIDAAKAAFTEAGPDVSLEEIARRAGVGIGTLYRHFPTRDAVIEAVYR; -0.206

Query string: # lookup: soluble fraction (log2) of HMLNDMYAVMEIRGQGGELIAKLINQDGSPFYVKKGTTLQSGHVIDEITTTYVRAEKAGAKDYLYF
Result string: -1.65

Query string: So what's the measured soluble fraction (log2) for this one? HMDTRSSARKALDAVNLLLETYGAKAYQHSYEIAGRRQQFQTPGDFMAFRSRLMAEVATEENAARINA
Result string: ≥ 0.43

Query string: Requested field: soluble fraction (log2). Item: HMLSVRERMSAILVSLEGERYADFTGLFDPTEGKGGVTVTFLAILELLKESMIDVVQNELYGPIHVRAA
Result string: 0.122

Query string: Field request: soluble fraction (log2) | item: HMSAPLKELGNDPESGKPIVVKDGRFGAYVTDGETNATLRKTDAVESLTPERAAELLAEKRAKG
Result string: 0.199

====

# assaySummary: soluble fraction after stress (log2 fold change); higher = more stays soluble; pooled small domains, quantitative proteomics
# conditionDetails: stress: pH 4
Rule: soluble fraction (log2) of -0.05 or more gives class 1; anything lower gives class 0.

Check out these entries, answers already filled in.
HMNEDTEDIKNINSLVNKLTENNFDIIRDSIVKLINKEHLIPYIIETIIEKSILHHRYVHLYVSILKE; class 0
HMADAGQTTAATELKQAPNAGSATISQLSAGQTLQIGTRQGAWYQVKTPQGEGWVRMLSVRLQ; class 1
HMDNWAALLSEREVQVSRLVANGASNKEIADHLAITERTVKAHLTAVFEKLGVRDRLQLSLRVNGL; class 0
HMKDNIRSILEDIPNIGPGRRRALLKHFGSIEAIRRASLEDLIKVDGMNRNAALSIMEYFGM; class 0
HMKNNAIAPDQVVSLLKNEVNYNDDGRIEILDNNKNIRYNSKGELLTIEERVNEFLDANPHFRK; class 1
HMQGPDPYAVLGIDRHADERAIKRAYRKLISEHHPDRLGDLPEDMRKRAESRASEINAAYDRIKEARGF; class 1

Query string: Does the sequence HMDFRVGVWVELVQQRRSVRTQLTWVSPQHTLFLFTAKDGSTQSMTLRMRDKLLAEGNLRIVAPPSR have recorded soluble fraction (log2) that is -0.05 or more?
Result string: class 1

Query string: API: above_or_equal(metric=soluble fraction (log2), cutoff=-0.05) for item HMIDYIKYTVDGKTYELINNWDGTWSRELEAPLVAGRYDLLLEISQNGLVTYIDSSDPRYEFYLDVI
Result string: class 0

====

# assaySummary: soluble fraction after stress (log2 fold change); higher = more stays soluble; pooled small domains, quantitative proteomics
# conditionDetails: stress: pH 4
# soluble fraction (log2) values compiled below
// return a plain number; no unit text

HMALKQADFDFIRQMIQQRAAIVLDDNKHYFVESRLGPVVEETGSKSLDQLIDQLRSSSNSLLQQKVTEAI; -0.324
HMVELRDGSLPLARGSVGDLVAEVQRKLGVAADGIFGPQTERAVRAFQARAGLASDGIVGPLTWSALFGA; 0.117
HMETIELSAPGGVRLDKLIADGTELSRSAAVKLIEQGNVLVNGSPAGKKDIPAAGAAVEITLPEPQ; -0.255

Query string: # input sequence: HMYPFSEETLKEKIREYLKTNRSINRRVLEREFYIRKQTALNWLNRLVDSGFLIKEGVRNSPVYFLAE ; wanted: its soluble fraction (log2)
Result string: 0.26
